B1: E3 ubiquitin-protein ligase Midline-1, residues 172 to 214; numbered along this chain, O15344 (parent)
chain: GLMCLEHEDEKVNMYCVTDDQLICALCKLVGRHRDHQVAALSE

# Variants of: B1
# ASSAY EXPLANATION: abundance fitness (aPCA) (normalised: wild type 0, dead -1); higher = more abundant; growth selection in yeast, the domain comes from the species named
# CONDITION PARAMETERS: Homo sapiens
Measured abundance fitness, listed per entry.

RESIDUE CHANGE: H7V
abundance fitness: -1.34

Q: # input variant: D19C ; wanted: its abundance fitness
A: -0.175

Q: Quick one: V12W
A: -0.251

Q: Then what about the variant E8K ?
A: 0.221

Q: Also need I23W , thanks.
A: -0.423

Q: Moving on to the next variant: E8V
A: 0.072
